- System: Vero E6 infected with SARS-CoV-2
- assay_overview: inhibition of SARS-CoV-2 cytopathic effect; higher = more antiviral protection, active = above 15
- measurement_setup: 1 nM; 48 h
endpoint_label: inhibition of SARS-CoV-2 cytopathic effect (%)

{"compound": "CN(C)CCOc1ccc(-c2nc(-c3ccncc3)c(-c3ccc4c(c3)CC/C4=N\\O)[nH]2)cc1", "numeric_readout": -0.13}
{"compound": "CCOC(=O)C(=O)Nc1cccc(OC)c1C(N)=O", "numeric_readout": 6.62}
{"compound": "CN1C[C@H](C(=O)N[C@]2(C)O[C@@]3(O)[C@@H]4CCCN4C(=O)[C@H](Cc4ccccc4)N3C2=O)C[C@@H]2c3cccc4[nH]cc(c34)C[C@H]21 [dihydroergotamine]", "numeric_readout": 0.49}
{"compound": "O=C1NC(=O)[C@@]2(CCOc3ccc(F)cc32)N1 [sorbinil]", "numeric_readout": -0.44}
{"compound": "C[C@@H]1[C@H](O)[C@@H](C)/C=C/C=C/C=C/C=C/C=C/C=C/C=C/[C@H](O[C@@H]2O[C@H](C)[C@@H](O)[C@H](N)[C@@H]2O)C[C@@H]2O[C@](O)(C[C@@H](O)C[C@@H](O)[C@H](O)CC[C@@H](O)C[C@@H](O)CC(=O)O[C@H]1C)C[C@H](O)[C@H]2C(=O)O [amphotericin-b]", "numeric_readout": -1.34}
{"compound": "CN1CCN(CCCCN2C(=O)CN(/N=C/c3ccc(-c4ccc(Cl)cc4)o3)C2=O)CC1 [azimilide]", "numeric_readout": 0.53}
{"compound": "Cc1[nH]c2ccccc2c1CCNCc1ccc(/C=C/C(=O)NO)cc1 [panobinostat]", "numeric_readout": -1}
{"compound": "C#CCN1C(C)=C(C(=O)OC)C(c2cccc([N+](=O)[O-])c2)C(C(=O)OCC)=C1C (stereo unspecified)", "numeric_readout": 0.91}
{"compound": "CCCN(CCC)S(=O)(=O)c1ccc(C(=O)O)cc1 [probenecid]", "numeric_readout": -0.75}
{"compound": "CN1C[C@@H](NS(=O)(=O)N(C)C)C[C@@H]2c3cccc4c3c(cn4C)C[C@H]21 [mesulergine]", "numeric_readout": -0.67}
{"compound": "CC(CC(C(N)=O)(c1ccccc1)c1ccccc1)N(C)C (stereo unspecified) [aminopentamide]", "numeric_readout": -1.11}
{"compound": "COc1ccnc2[nH]cc(C(=O)C(=O)N3CCN(C(=O)c4ccccc4)C[C@H]3C)c12", "numeric_readout": 1.91}
{"compound": "Cc1ccccc1C(OCCN(C)C)c1ccccc1 (stereo unspecified) [orphenadrine]", "numeric_readout": 0.59}
{"compound": "NC(CO)C(=O)NNCc1ccc(O)c(O)c1O (stereo unspecified) [benserazide]", "numeric_readout": -1.48}
{"compound": "O=C(O)c1cc(O)c2c(Cl)cc(Cl)cc2n1 [5,7-dichlorokynurenic-acid]", "numeric_readout": 1.65}
{"compound": "CN(CC(=O)O)C(=N)N [creatine]", "numeric_readout": -2.18}
{"compound": "CC(C)c1c2cc(-c3ccnc(N[C@H]4CC[C@H](NC5CCOCC5)CC4)n3)ccc2nn1C", "numeric_readout": -0.19}
{"compound": "COc1ccccc1N1CCN(CCN(C(=O)C2CCCCC2)c2ccccn2)CC1", "numeric_readout": -3.64}
{"compound": "CC(=O)O[C@@H]1CC[C@@]2(C)[C@@H](CC[C@]3(C)[C@@H]2C(=O)C=C2[C@@H]4[C@@H](C)[C@H](C)CC[C@]4(C)CC[C@]23C)[C@@]1(C)C(=O)O [acetyl-11-keto-beta-boswellic-acid]", "numeric_readout": -1.38}
{"compound": "Cc1cc(O)cc2c1O[C@](C)(CCC[C@H](C)CCC[C@H](C)CCCC(C)C)CC2 [D-delta-tocopherol]", "numeric_readout": 1.56}
{"compound": "CCCCc1cc2ccccc2c(OCCN(C)C)n1 [dimethisoquin]", "numeric_readout": 0.87}

Just for reference, the supplement of paper PMC13380429 is where these values come from.
